system: HSkMC; assay: cytotoxicity call (relative viability < 0.9); settings: 10 µM
The campaign covered roughly 39,000 compounds. About 1,500 (3.8%) were called active. For the sample, actives were picked, then their nearest neighbours and some compounds at random.
Could you please pick one outcome from this set? yes for active, no for inactive

Answered examples (6):
1. COc1ccc(CN(C)C[C@H]2Oc3ccc(NC(=O)Nc4cccc5ccccc45)cc3CC(=O)N([C@@H](C)CO)C[C@@H]2C)cc1 | no
2. C[C@H](CO)N1C[C@H](C)[C@@H](CN(C)Cc2ccc(-c3ccccc3)cc2)Oc2ccc(NC(=O)Nc3cccc4ccccc34)cc2CC1=O | no
3. C[C@H]1CN([C@@H](C)CO)C(=O)c2cc(NC(=O)Nc3ccc(F)cc3)ccc2O[C@@H]1CN(C)C(=O)Nc1ccc(C(F)(F)F)cc1 | no
4. NC(=O)c1ccc2nc(-c3ccc(C4(N)CCC4)cc3)c(-c3ccccc3)n2n1 | no
5. C[C@H]1CN([C@@H](C)CO)C(=O)c2cc(/C=C/c3ccccc3)cnc2O[C@@H]1CN(C)S(=O)(=O)c1cn(C)cn1 | no
6. C[C@@H]1CN([C@@H](C)CO)C(=O)c2cc(NC(=O)Nc3ccc(C(F)(F)F)cc3)ccc2O[C@@H]1CN(C)C(=O)Nc1ccc(F)cc1 | yes

Returns: the outcome recorded for Cc1ccc(S(=O)(=O)Nc2ccc3c(c2)CC(=O)N([C@H](C)CO)C[C@H](C)[C@@H](CN(C)Cc2ccc(Oc4ccccc4)cc2)O3)cc1 in this assay.
no

Returns: the outcome recorded for C[C@H](CO)N1C[C@H](C)[C@@H](CN(C)CC2CC2)Oc2ccc(NS(=O)(=O)c3ccccc3)cc2C1=O in this assay.
no

Returns: the outcome recorded for C[C@H](CO)N1C[C@H](C)[C@@H](CN(C)Cc2ccc(C(F)(F)F)cc2)Oc2c(NC(=O)Nc3ccc(F)cc3)cccc2C1=O in this assay.
no

Returns: the outcome recorded for Cc1noc(C)c1S(=O)(=O)Nc1ccc2c(c1)C(=O)N([C@@H](C)CO)C[C@@H](C)[C@H](CN(C)Cc1ccc(C(F)(F)F)cc1)OCCCC[C@H](C)O2 in this assay.
no

Returns: the outcome recorded for C[C@@H]1CN([C@@H](C)CO)C(=O)Cc2cc(NS(=O)(=O)c3ccc(Cl)cc3)ccc2O[C@@H]1CN(C)S(C)(=O)=O in this assay.
no

Returns: the outcome recorded for Cc1ccc(S(=O)(=O)Nc2ccc3c(c2)CC(=O)N([C@H](C)CO)C[C@@H](C)[C@H](CN(C)Cc2ccc(Oc4ccccc4)cc2)O3)cc1 in this assay.
yes

Returns: the outcome recorded for NC1CCN(c2cccc(Cl)n2)CC1 in this assay.
no

Returns: the outcome recorded for C[C@H](CO)N1C[C@H](C)[C@@H](CN(C)C(=O)Nc2ccc(F)cc2)Oc2ccc(NC(=O)Nc3ccc(C(F)(F)F)cc3)cc2C1=O in this assay.
no

Returns: the outcome recorded for Cc1ccc(S(=O)(=O)Nc2ccc3c(c2)CC(=O)N([C@H](C)CO)C[C@H](C)[C@H](CN(C)Cc2ccc(Oc4ccccc4)cc2)O3)cc1 in this assay.
no

Returns: the outcome recorded for C[C@@H]1CN([C@H](C)CO)C(=O)c2cc(NC(=O)Nc3ccc(C(F)(F)F)cc3)ccc2O[C@H]1CN(C)C(=O)Nc1ccc(F)cc1 in this assay.
no

Returns: the outcome recorded for COc1ccc(NC(=O)Nc2ccc3c(c2)CC(=O)N([C@@H](C)CO)C[C@@H](C)[C@H](CN(C)Cc2ccc(-c4ccccc4)cc2)O3)cc1 in this assay.
no

Returns: the outcome recorded for CO[C@H](C(=O)N(C)C[C@@H]1OCc2ccccc2-c2c(n(C)c3ccccc23)C(=O)N([C@@H](C)CO)C[C@@H]1C)c1ccccc1 in this assay.
no

Returns: the outcome recorded for Nc1ncccc1-c1nc2ccc(-c3ccccc3)nc2n1-c1ccc(C2(N)CCC2)cc1 in this assay.
yes

Returns: the outcome recorded for Cc1ccc(S(=O)(=O)Nc2ccc3c(c2)CC(=O)N([C@@H](C)CO)C[C@H](C)[C@H](CN(C)Cc2ccc(Oc4ccccc4)cc2)O3)cc1 in this assay.
yes

Returns: the outcome recorded for Cc1ccc(S(=O)(=O)Nc2ccc3c(c2)CC(=O)N([C@@H](C)CO)C[C@H](C)[C@@H](CN(C)Cc2ccc(Oc4ccccc4)cc2)O3)cc1 in this assay.
yes

Returns: the outcome recorded for CC(C)Cn1cnc2c1c(=O)n(C)c(=O)n2C in this assay.
no

Returns: the outcome recorded for C[C@H]1CN([C@@H](C)CO)C(=O)c2cc(NC(=O)Nc3ccc(C(F)(F)F)cc3)ccc2O[C@H]1CN(C)C(=O)Nc1ccc(F)cc1 in this assay.
no

---

system: HSkMC; assay: cytotoxicity call (relative viability < 0.9); details: 10 µM
Among all 39,000 compounds or so, about 1,500 (3.8%) were called active. The list comes from a sample in which actives are over-represented; it also holds close analogues and randomly drawn compounds.
Could you please pick one outcome from this set? True (active), False (inactive)

Answered examples (5):
1) O=C1OCCN/C1=C/C(=O)c1ccccc1 | False
2) COc1ccc2c3c(n(c2c1)C)[C@@H](CO)N(C[C@]13CCN(CC1)S(=O)(=O)C)C(=O)CN(C)C | False
3) C[C@@H]1CCCCO[C@H](CN(C)Cc2ccncc2)[C@@H](C)CN([C@@H](C)CO)C(=O)c2cc(NC(=O)Nc3ccccc3)ccc2O1 | False
4) CN1CCN(c2ccc(OC(F)(F)F)c(Nc3ncc4c(n3)-c3c(c(C(N)=O)nn3CCO)CC4)c2)CC1 | True
5) Cc1ccc(S(=O)(=O)N(C)C[C@@H]2Oc3ccc(NC(=O)Nc4ccc(C(F)(F)F)cc4)cc3CC(=O)N([C@@H](C)CO)C[C@H]2C)cc1 | True

Returns: the outcome recorded for C[C@@H]1CCCCO[C@H](CN(C)C(=O)Cc2ccccc2)[C@H](C)CN([C@@H](C)CO)C(=O)c2cc(NC(=O)Nc3ccccc3)ccc2O1 in this assay.
False

Returns: the outcome recorded for C[C@@H]1CN([C@H](C)CO)C(=O)c2cccc(NC(=O)Nc3cccc4ccccc34)c2O[C@@H]1CN(C)C(=O)Nc1ccccc1 in this assay.
False

Returns: the outcome recorded for COc1ccc(-c2cnc3c(c2)C(=O)N([C@H](C)CO)C[C@@H](C)[C@H](CN(C)C(=O)Cc2ccncc2)O3)cc1 in this assay.
False

Returns: the outcome recorded for COC(=O)c1c2oc(c1C(=O)OC)C(=O)N[C@H](Cc1ccccc1)Cn1cc(nn1)[C@@H](Cc1ccccc1)NC(=O)N[C@H](COC(=O)NCCCCCC(=O)NO)CC2 in this assay.
False

Returns: the outcome recorded for COc1ccccc1-c1cnc2c(c1)C(=O)N([C@@H](C)CO)C[C@H](C)[C@H](CN(C)C(=O)c1cccnc1)O2 in this assay.
False

Returns: the outcome recorded for C[C@@H]1CN([C@@H](C)CO)C(=O)c2cccc(NC(=O)Nc3cccc4ccccc34)c2O[C@H]1CN(C)C(=O)Nc1ccccc1 in this assay.
True

Returns: the outcome recorded for COc1ccc(NC(=O)N(C)C[C@@H]2Oc3c(NC(=O)Nc4cccc5ccccc45)cccc3C(=O)N([C@H](C)CO)C[C@H]2C)cc1 in this assay.
False

Returns: the outcome recorded for CO[C@@H]1CN(C)C(=O)c2cc(NC(=O)c3ccccc3)ccc2OC[C@H](C)N(C(=O)CN(C)C)C[C@@H]1C in this assay.
False

---

tested on: HSkMC (human skeletal muscle cells); assay: cytotoxicity call (relative viability < 0.9); settings: 10 µM
The whole screen tested about 39,000 compounds, of which about 1,500 (3.8%) were called active. This excerpt belongs to a sample that is enriched for actives.
Could you please pick one outcome from this set? active, inactive

Answered examples (10):
1. COC(=O)C[C@](O)(CCCC(C)(C)O)C(=O)O[C@@H]1C(OC)=C[C@]23CCCN2CCc2cc4c(cc2[C@H]13)OCO4 | active
2. CC12CC3(C)CC(C)(C1)CC(C/N=C/c1ccc(O)cc1)(C2)C3 | inactive
3. CON=C(C(=O)NC1C(=O)N2C(C(=O)OCOC(=O)C(C)(C)C)=C(C=Cc3scnc3C)CSC12)c1csc(N)n1 (stereo unspecified) | inactive
4. Cc1noc(C)c1NC(=O)Nc1ccc2c(c1)CC(=O)N([C@@H](C)CO)C[C@H](C)[C@H](CN(C)C(=O)Nc1ccc(C(F)(F)F)cc1)O2 | inactive
5. Cc1ccc(S(=O)(=O)Nc2ccc3c(c2)C(=O)N([C@@H](C)CO)C[C@@H](C)[C@H](CN(C)Cc2ccccc2)OCCCC[C@@H](C)O3)cc1 | inactive
6. C[C@@H]1CCCCO[C@@H](CN(C)Cc2ccccc2)[C@H](C)CN([C@@H](C)CO)C(=O)c2cc(NC(=O)c3ccncc3)ccc2O1 | inactive
7. CN(C)C1CCN(C(=O)c2cnc(-c3noc4cc(-c5cccc(C(F)(F)F)c5)ccc34)s2)CC1 | active
8. C[C@@H]1CN([C@H](C)CO)C(=O)Cc2cc(NC(=O)CCN3CCOCC3)ccc2O[C@@H]1CN(C)C(=O)Nc1ccccc1 | inactive
9. COC(=O)C1CCN(S(=O)(=O)c2c(C)n(C)c(=O)n(C)c2=O)CC1 | inactive
10. CCn1nnc2c(=S)nc[nH]c21 | inactive

Returns: the outcome recorded for CN(C)C1CCN(C(=O)c2cnc(-c3noc4cc(-c5ccccc5C(F)(F)F)ccc34)s2)CC1 in this assay.
inactive
